Where do the numbers come from? From PubChem BioAssay (NCI).

system: MDA-MB-435; assay: NCI tumour cell line growth inhibition, 48 h
quantity name: TGI

The following compounds have reported results that may help.
O=C(/C=C/c1ccc2ccccc2c1)NCc1ccc(C(=O)NCCc2ccccc2)cc1 ... > 100 µM
c1ccc(CNc2nncc3[nH]cnc23)cc1 ... > 100 µM
COc1ccc(-c2cc(-c3cc(C)cc(Br)c3O)no2)cc1 ... > 100 µM

Asked: Checklist item: TGI tested on MDA-MB-435, entry CCOC(=O)c1cc2c3ccn(Cc4ccccc4)c3c3c(C)[nH]oc3c2n1 , value?
Given back: > 100 µM

Asked: Write down the reported TGI of CCN1CCN(c2nc3ccccc3c3c2CCOc2ccccc2-3)CC1 , test system: MDA-MB-435.
Given back: > 62.7 µM

Asked: Provide the documented TGI with MDA-MB-435 as the system for C/C(=N/NC(N)=S)c1ccc[nH]1
Given back: > 100 µM

Asked: Query for MDA-MB-435: what TGI does the record show for COc1cc(OC)c(C(=O)/C=C/c2cccc(C(F)(F)F)c2)c(OC)c1 ?
Given back: 6.57 µM

Asked: Give TGI (MDA-MB-435) of the following compound: CCN(CC)CCSc1c2cc(OC)ccc2nc2ccc(OC)cc12
Given back: 21.3 µM

Asked: Query the reported TGI for MDA-MB-435; item: CC1(C)/C(=C/N=O)N(O)C(C)(C)N1O
Given back: 54.5 µM

Asked: Query TGI on MDA-MB-435 for COc1ccc(C[N+](C)(C)N)cc1OC
Given back: > 100 µM

Asked: What is its TGI for MDA-MB-435? Entry: COC(=O)c1cc2c(cc1CC(Cc1ccc3c(c1)CCCC3)C(=O)OC)CCCC2 (stereo unspecified)
Given back: > 100 µM
